All figures here come from patent US20040116523A1.

Tested on: iagA′-lacZ fusion (S. typhi strain Ty267)
RUN DESCRIPTION: β-galactosidase activity of the iagA′-lacZ fusion in favourable LB medium
Assay type: cell-based
STATED CONDITIONS: sodium salt, 5 mM in favourable LB medium, 6 hours at 37° C.
MEASUREMENT TYPE: inhibition of the expression of the iagA′-lacZ fusion in S. typhi (in words)

> print(dat)
                                   compound                               measured.on  observed.value
1  O=C([O-])c1ccccc1.[Na+] [sodium benzoate]  iagA′-lacZ fusion (S. typhi strain Ty267)         inhibit
2  O=C([O-])Cc1ccccc1.[Na+] [sodium phenylacetate]  iagA′-lacZ fusion (S. typhi strain Ty267)         inhibit
3  O=C([O-])CCc1ccccc1.[Na+] [sodium 3-phenylpropionate]  iagA′-lacZ fusion (S. typhi strain Ty267)         inhibit
